target: Cbl-B (Homo sapiens, UniProt Q13191); construct: MSD-Based Assay for Degradation of Cbl-B in THP-1 Cells; endogenous in cells; host or cells: THP-1 (title) / Jurkat (protocol text); experiment: MSD-based assay for degradation of Cbl-B in THP-1 cells; assay type: cell-based; conditions: Cbl-B degradation, Jurkat cells seeded (heading: THP-1 cells), 24 hours incubation, MSD readout
Sequence (Q13191 whole entry): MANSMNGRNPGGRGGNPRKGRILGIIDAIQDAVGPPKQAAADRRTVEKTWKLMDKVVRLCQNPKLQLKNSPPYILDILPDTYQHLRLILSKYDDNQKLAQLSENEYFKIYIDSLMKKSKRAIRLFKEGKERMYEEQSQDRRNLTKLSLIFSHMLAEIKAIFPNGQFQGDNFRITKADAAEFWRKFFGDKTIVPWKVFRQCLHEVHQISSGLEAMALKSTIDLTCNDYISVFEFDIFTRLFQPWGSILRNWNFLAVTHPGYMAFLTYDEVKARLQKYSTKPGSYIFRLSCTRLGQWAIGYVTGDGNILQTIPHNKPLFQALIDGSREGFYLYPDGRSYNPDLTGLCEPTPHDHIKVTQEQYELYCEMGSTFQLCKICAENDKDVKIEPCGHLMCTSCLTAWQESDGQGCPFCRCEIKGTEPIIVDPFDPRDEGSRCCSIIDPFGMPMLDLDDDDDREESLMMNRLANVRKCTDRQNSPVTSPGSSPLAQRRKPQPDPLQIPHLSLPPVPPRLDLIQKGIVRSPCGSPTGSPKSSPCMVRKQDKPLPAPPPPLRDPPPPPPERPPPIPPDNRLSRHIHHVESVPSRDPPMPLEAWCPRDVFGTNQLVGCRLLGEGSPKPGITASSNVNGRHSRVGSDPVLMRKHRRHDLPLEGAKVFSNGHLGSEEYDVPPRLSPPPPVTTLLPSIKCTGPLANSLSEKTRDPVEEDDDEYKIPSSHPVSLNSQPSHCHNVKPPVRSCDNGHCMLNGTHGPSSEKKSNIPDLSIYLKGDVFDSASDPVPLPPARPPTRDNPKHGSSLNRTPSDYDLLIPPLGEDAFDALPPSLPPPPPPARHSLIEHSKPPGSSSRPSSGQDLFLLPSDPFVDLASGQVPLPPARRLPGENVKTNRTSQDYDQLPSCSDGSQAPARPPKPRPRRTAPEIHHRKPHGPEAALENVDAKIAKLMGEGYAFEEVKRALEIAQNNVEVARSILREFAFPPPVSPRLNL
Catalogue of DC50 readings, one per entry.

COMPOUND: CN(CC1CCN(Cc2cc(C(F)(F)F)c3cn(-c4cccc(C5(Cc6nncn6C)COC5)c4)c(=O)n3c2)CC1)C(=O)c1ccc(N2CCN(c3ccc4c(c3)CN([C@@H]3CCC(=O)NC3=O)C4=O)CC2)cc1
DC50: 1000 to 10000 nM
//
COMPOUND: Cn1cnnc1CC1(c2cccc(-n3cc4c(C(F)(F)F)cc(CN5CCC(CCN6CCC(CC7CCN(c8ccc9c(c8)CN([C@H]8CCC(=O)NC8=O)C9=O)CC7)CC6)CC5)cn4c3=O)c2)COC1
DC50: 30 to 300 nM
//
COMPOUND: Cn1cnnc1CC1(c2cccc(-n3cc4c(C(F)(F)F)cc(CN5CCC(OCCCN6CCN(c7ccc8c(c7)CN([C@@H]7CCC(=O)NC7=O)C8=O)CC6)CC5)cn4c3=O)c2)COC1 (single isomer, unassigned)
DC50: > 10000 nM
//
COMPOUND: Cn1cnnc1[C@@H](c1cccc(-n2cc3c(C(F)(F)F)cc(CN4CCC(OCCN5CCC(CN6CCN(c7cc8c(cc7F)C(=O)N(C7CCC(=O)NC7=O)C8=O)CC6)CC5)CC4)cn3c2=O)c1)C1CCC1 (stereo partly drawn)
DC50: 1000 to 10000 nM
//
COMPOUND: CO[C@H]1C[C@](c2cccc(-n3cc4c(C(F)(F)F)cc(CN5CCN(CCc6ccc(N7CCN(c8ccc9c(c8)CN([C@H]8CCC(=O)NC8=O)C9=O)CC7)cc6)CC5)cn4c3=O)c2)(c2nncn2C)C1
DC50: < 30 nM
//
COMPOUND: Cn1cnnc1[C@@H](c1cccc(-n2cc3c(C(F)(F)F)cc(-c4nccn4CCOCCN4CCC(CN5CCN(c6ccc7c(c6)CN([C@@H]6CCC(=O)NC6=O)C7=O)CC5)CC4)cn3c2=O)c1)C1CCC1
DC50: 1000 to 10000 nM
//
COMPOUND: Cn1cnnc1[C@@H](c1cccc(-n2cc3c(C(F)(F)F)cc(CN4CCC(OCc5ccc(CC6CCN(c7ccc8c(c7)CN([C@@H]7CCC(=O)NC7=O)C8=O)CC6)cc5)CC4)cn3c2=O)c1)C1CCC1 (single isomer, unassigned)
DC50: 300 to 1000 nM
//
COMPOUND: Cn1cnnc1[C@@H](c1cccc(-n2cc3c(C(F)(F)F)cc(CN4CCC(OCCNc5cccc6c5C(=O)N(C5CCC(=O)NC5=O)C6=O)CC4)cn3c2=O)c1)C1CCC1 (stereo partly drawn)
DC50: 1000 to 10000 nM
//
COMPOUND: Cn1cnnc1CC1(c2cccc(-n3cc4c(C(F)(F)F)cc(CN5CCC(C6CCN(C(=O)c7ccc(N8CCN(c9ccc%10c(c9)CN([C@H]9CCC(=O)NC9=O)C%10=O)CC8)cc7)CC6)CC5)cn4c3=O)c2)COC1
DC50: < 30 nM
